Test system: C2C12 myotubes
Conditions: composite Z-score vs DMSO; Conc 20 μM

{"columns": ["Compound", "Target or system", "Viability"],
 "data": [
  ["C[C@H]1CC[C@]2(NC1)O[C@H]1C[C@H]3[C@@H]4CC[C@H]5C[C@@H](O[C@@H]6O[C@H](CO)[C@H](O[C@@H]7O[C@H](CO)[C@@H](O)[C@H](O[C@@H]8OC[C@@H](O)[C@H](O)[C@H]8O)[C@H]7O[C@@H]7O[C@H](CO)[C@@H](O)[C@H](O)[C@H]7O)[C@H](O)[C@H]6O)CC[C@]5(C)[C@H]4CC[C@]3(C)[C@H]1[C@@H]2C [tomatine]", "C2C12 myotubes", "−4.793"],
  ["CN[C@@H](C)[C@H](O)c1ccccc1 [ephedrine]", "C2C12 myotubes", "−0.536"],
  ["CC(CN(C)C)CN1c2ccccc2Sc2ccccc21 (stereo not shown) [trimeprazine]", "C2C12 myotubes", "−1.472"],
  ["C[C@@H]1O[C@@H](O[C@H]2[C@H](O[C@H]3CC[C@@]4(C)[C@@H](CC[C@]5(C)[C@@H]4CC=C4[C@@H]6CC(C)(C)CC[C@]6(C(=O)O)CC[C@]45C)[C@]3(C)CO)OC[C@H](O)[C@@H]2O)[C@H](O)[C@H](O)[C@H]1O [sapindoside A]", "C2C12 myotubes", "−3.886"],
  ["CC[C@@]1(O)C[C@H](O)c2c(cc3c(c2O)C(=O)c2c(O)ccc(O)c2C3=O)[C@H]1C(=O)OC [rutilantinone]", "C2C12 myotubes", 0.192],
  ["O=C(O)c1cccc(O)c1O [pyrocatechuic acid]", "C2C12 myotubes", "−1.076"],
  ["C/C=C(\\C)C(=O)O[C@H]1C[C@@H](OC(C)=O)[C@@]2(C(=O)OC)CO[C@H]3[C@@H](O)[C@@](C)([C@]45O[C@@]4(C)[C@H]4C[C@@H]5O[C@@H]5OC=C[C@@]54O)[C@H]4[C@]1(CO[C@]4(O)C(=O)OC)[C@@H]32 [azadirachtin]", "C2C12 myotubes", "−0.479"],
  ["CCCCCC1C(=O)CCC1CC(=O)OC (stereo not shown) [dihydrojasmonic acid, methyl ester]", "C2C12 myotubes", 0.971],
  ["O=C(O)CF [sodium fluoroacetate]", "C2C12 myotubes", "−0.906"],
  ["COc1ccc2c(c1)CC[C@@H]1[C@@H]2CC[C@]2(C)[C@@H](O)CC[C@@H]12 [estradiol methyl ether]", "C2C12 myotubes", 0.510],
  ["C[C@H](N)[C@H](O)c1cccc(O)c1 [metaraminol]", "C2C12 myotubes", 0.107],
  ["O[C@H]1[C@H]2c3cc4c(cc3CN3CCC(=C[C@@H]1O)[C@H]23)OCO4 [Lycorine, reference compound]", "C2C12 myotubes", "−2.922"],
  ["CCN1CCN(C(=O)N[C@@H](C(=O)N[C@@H]2C(=O)N3[C@@H]2SC(C)(C)[C@@H]3C(=O)O)c2ccccc2)C(=O)C1=O [piperacillin]", "C2C12 myotubes", "−0.990"]
]}
